Could you please report measured ED50 for the items listed next?
Tested on: Rattus norvegicus
Test: Contralateral circling behavior in 6-OH-DA-lesioned rats was recorded after subcutaneous administration
Assay type: functional
Conditions: Rattus norvegicus, sc; read-out: ED50
Number only, in µmol/kg; omit the unit.

Query string: Answer with the recorded ED50 for the compound listed here: CCCN1CCC[C@H](c2cccc(O)c2)C1
Result string: 1.9

Query string: Tell me measured ED50 for CCCN1CCC[C@@H](c2cccc(O)c2)C1 please.
Result string: 0.77

Query string: Please give measured ED50 of the following entry: CCCN1CCCC(c2cccc(O)c2)C1 (stereo not drawn)
Result string: 1.7

Query string: Retrieve ED50 measured for CN1CCc2cccc3c2[C@H]1Cc1ccc(O)c(O)c1-3 and print it.
Result string: 0.058

----------
Kindly state ED50 for each of the entries shown.
Tested on: Rattus norvegicus
Assay: Contralateral circling behavior in 6-OH-DA-lesioned rats was recorded after subcutaneous administration
Assay type: functional
The figure you give is taken to be in µM/kg; do not add the unit.

Query string: Supply recorded ED50 for Oc1cccc(C2CCCN3CCCC23)c1 (stereo in doubt; 19e) here.
Result string: 13

Query string: Give the measured ED50 for Oc1cccc(C2CCCN3CCCC23)c1 (single isomer, unassigned; (+))
Result string: 7.1

----------
Test system: Rattus norvegicus
Experiment: Inhibition of spontaneous locomotor activity was performed in photocell cages at 30-45 minutes after subcutaneous administration
Type: functional
Readout: ED50 (µM/kg)
Just the number please, in µM/kg, no unit attached.

Query string: Recall the reported ED50 of Oc1cccc(C2CCCN3CCCC23)c1 (single isomer, unassigned; (+)) when tested on Rattus norvegicus.
Result string: 3.9

Query string: Print Rattus norvegicus ED50 for Oc1cccc(C2CCCN3CCCC23)c1 (single isomer, unassigned; (-)) .
Result string: 40

----------
Test system: Rattus norvegicus
Assay: Contralateral circling behavior in 6-OH-DA-lesioned rats was recorded after subcutaneous administration
Type: functional
Conditions: Rattus norvegicus, sc; read-out: ED50
Readout: ED50

Query string: Read the entry Oc1cccc(C2CCCN3CCCCC23)c1 (single isomer, unassigned; 20e) and write its reported ED50.
Result string: > 87 µmol/kg

Query string: Name the recorded ED50 of the molecule listed here: Oc1cccc(C2CCC3CCCN3C2)c1 (centres undefined)
Result string: > 67 µmol/kg

Query string: Check the records and state ED50 for Oc1cccc(C2CCC3CCCCN3C2)c1 (centres undefined)
Result string: > 64 µmol/kg

Query string: Indicate its recorded ED50; the molecule in question is Oc1cccc(C2=CCCN3CCCCC23)c1 (centres undefined)
Result string: > 87 µmol/kg

----------
Kindly supply the reported ED50 values for the records listed here.
Test system: Rattus norvegicus
Assay: Contralateral circling behavior in 6-OH-DA-lesioned rats was recorded after subcutaneous administration
Assay type: functional

Query string: Under Rattus norvegicus: report ED50 of Oc1cccc(C2CCCN3CCCCC23)c1 (single isomer, unassigned; 20a) .
Result string: >64 µM/kg

Query string: Report ED50 under test system Rattus norvegicus for Oc1cccc(C2CCCN3CCCC23)c1 (stereo in doubt; 19a) .
Result string: >67 µM/kg

Query string: Give reported ED50 for Oc1cccc(C2CCCN3CCCC23)c1 (single isomer, unassigned; (-)) (Rattus norvegicus)
Result string: >79 µM/kg
